Source of measurements: ChEMBL document CHEMBL2331320

Field: half-life. Provide a value for each of the compounds that follow.
- procedureDetails: Half life in Sprague-Dawley rat at 25 mg/kg, po by HPLC/MS analysis
- Format: ADME, organism-based
- Set-up: dose 25 mg/kg, route oral
- recordedConditions: in vivo
Your answer is read as h, so omit the unit and give the number.

Query block: Consider the compound CCc1ccc(C(=O)Nc2cc(CN3CCN(C)CC3)cc(C(F)(F)F)c2)cc1C#Cc1cnc2ccnn2c1 and give its recorded half-life.
Result block: 15.5

Query block: Note down half-life recorded for CN1CCN(Cc2cc(NC(=O)c3cccc(C#Cc4cnc5ccnn5c4)c3)cc(C(F)(F)F)c2)CC1
Result block: 9.8
